- test-target: T1, recombinant cynomolgus 4-1BB extracellular domain protein (cynomolgus, UniProt A9YYE7 24-186)
- T1 construct: Analyte in the Octet assay
- T1 sequence: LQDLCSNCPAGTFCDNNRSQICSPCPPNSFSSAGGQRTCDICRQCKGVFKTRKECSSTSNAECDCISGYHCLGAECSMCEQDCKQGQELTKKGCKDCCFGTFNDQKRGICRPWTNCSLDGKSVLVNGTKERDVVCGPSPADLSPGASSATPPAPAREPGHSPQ
- assay-remarks: Octet BLI; chimeric IgG from transfection supernatant on anti-human Fc biosensor; recombinant cynomolgus 41BB; column kdis(1/s) Cynomolgus
Listed next: entries and their corresponding koff.
Kindly answer with a numeric value in s⁻¹, unit omitted.

Field: example entries. Status: answers known.
>  <binder>
420H6 (antibody, human IgG1, kappa, V domains shown, one of the 34 chimeric antibodies; rabbit variable regions on human IgG1 and human kappa; also called 420H6 chimeric rabbit/human IgG) VH: QQQLEESGGGLVKPGGTLTLTCKASGIDFSSSYYMCWVRQAPGEGLEWIACIYTGGSGTPHYASWAKGRFTISQTSSTTVTLQMTSLTAADTATYFCAREGSLWGQGTLVTVSS VL: AQVLTQTASPVSAAVGGTVTINCQASQSVYSNWLSWYQQKPGQPPKRLIYSASTLASGVPSRFKGSGSGTQFTLTISDLECDDAATYYCAGGYNTVIDTFAFGGGTEVEFKR

>  <koff [s⁻¹]>
0.002

$$$$
>  <binder>
460C3 (antibody, human IgG1, kappa, V domains shown, one of the 34 chimeric antibodies; rabbit variable regions on human IgG1 and human kappa; also called 460C3 chimeric rabbit/human IgG) VH: QSLEESGGDLVKPGASLTLTCTASGIDFSRRYYMCWVRQAPGKGLEWIACIYTGSRDTPHYASWAKGRFTISQTSSTTVTLQMTSLTAADTATYFCAREGSLWGQGTLVTVSS VL: AQVLTQTPSSVSAAVGGTVSISCQSSQSVYSNWFSWYQQKPGQPPKLLIYSASTLASGVPSRFKGSGSGTQFTLTISDLECDDAATYYCAGGYNTVIDTFAFGGGTEVEFKR

>  <koff [s⁻¹]>
0.0041

$$$$
>  <binder>
472E4 (antibody, human IgG1, kappa, V domains shown, one of the 34 chimeric antibodies; rabbit variable regions on human IgG1 and human kappa; also called 472E4 chimeric rabbit/human IgG) VH: QSLEESGGRLVTPGGSLTLTCTVSGFSLNNNAISWVRQAPGKGLEWVAIIQNTGTTDYARWAKGRFTISKTSTTVDLKINSPTTEDTATYFCGRGYGFESELVIWGPGTLVTVSS VL: AAVLTQTPSSTSAAVGGTVTISCQSSQSVYNNNALAWYQKKPGQPPKLLIYLASTLASGVPSRFSGSGSGTQFTLTISDLECDDAATYYCLGVYNDDVDNGFGGGTEVVFKR

>  <koff [s⁻¹]>
0.0018

$$$$
>  <binder>
419D9 (antibody, human IgG1, kappa, V domains shown, one of the 34 chimeric antibodies; rabbit variable regions on human IgG1 and human kappa; also called 419D9 chimeric rabbit/human IgG) VH: QSLEESGGDLVKPGASLTLTCTASGFSFSSRHYMCWVRQAPGEGLEWIACIYTGSSGTPHYASWAKGRFTISQTSSTTVTLQMTSLTAADTATYFCSSEGNLWGPGTLVTVSS VL: AQVLTQTASPVSAAVGGTVTINCQSSQSVYSNWLSWYQQKPGQPPKRLIYSASTLASGVPSRFKGSGSGTQFTLTISDLECDDAATYYCAGGYNTVTDTFAFGRGTEVEVKR

>  <koff [s⁻¹]>
0.0014

$$$$

Request: I am curious: what koff value has been reported for 470C6 (antibody, human IgG1, kappa, V domains shown, one of the 34 chimeric antibodies; rabbit variable regions on human IgG1 and human kappa; also called 470C6 chimeric rabbit/human IgG) VH: QSLEEAGGDLVKPGASLTLTCTASGFSFTSSYYMCWVRQAPGKGLEWIACIYTGSSGSTYYANWAKGRFTISKTSSTTVTLQMTSLTAADTATYFCARDSSSYYMFNLWGQGTLVTVSS VL: ALVMTQTPASVSAAVGGTVTINCQASEDIDNYLAWYQQKPGQPPKLLIFYASDLASGVPSRFSGSGSGTQFTLTISGVQCDDAATYYCQGGYYTSSTDTRGAFGGGTEVVVKR ?
Result: 0.0014
